# SYSTEM: Transient receptor potential cation channel subfamily A member 1 (Homo sapiens)
# Sequence (O75762 whole entry): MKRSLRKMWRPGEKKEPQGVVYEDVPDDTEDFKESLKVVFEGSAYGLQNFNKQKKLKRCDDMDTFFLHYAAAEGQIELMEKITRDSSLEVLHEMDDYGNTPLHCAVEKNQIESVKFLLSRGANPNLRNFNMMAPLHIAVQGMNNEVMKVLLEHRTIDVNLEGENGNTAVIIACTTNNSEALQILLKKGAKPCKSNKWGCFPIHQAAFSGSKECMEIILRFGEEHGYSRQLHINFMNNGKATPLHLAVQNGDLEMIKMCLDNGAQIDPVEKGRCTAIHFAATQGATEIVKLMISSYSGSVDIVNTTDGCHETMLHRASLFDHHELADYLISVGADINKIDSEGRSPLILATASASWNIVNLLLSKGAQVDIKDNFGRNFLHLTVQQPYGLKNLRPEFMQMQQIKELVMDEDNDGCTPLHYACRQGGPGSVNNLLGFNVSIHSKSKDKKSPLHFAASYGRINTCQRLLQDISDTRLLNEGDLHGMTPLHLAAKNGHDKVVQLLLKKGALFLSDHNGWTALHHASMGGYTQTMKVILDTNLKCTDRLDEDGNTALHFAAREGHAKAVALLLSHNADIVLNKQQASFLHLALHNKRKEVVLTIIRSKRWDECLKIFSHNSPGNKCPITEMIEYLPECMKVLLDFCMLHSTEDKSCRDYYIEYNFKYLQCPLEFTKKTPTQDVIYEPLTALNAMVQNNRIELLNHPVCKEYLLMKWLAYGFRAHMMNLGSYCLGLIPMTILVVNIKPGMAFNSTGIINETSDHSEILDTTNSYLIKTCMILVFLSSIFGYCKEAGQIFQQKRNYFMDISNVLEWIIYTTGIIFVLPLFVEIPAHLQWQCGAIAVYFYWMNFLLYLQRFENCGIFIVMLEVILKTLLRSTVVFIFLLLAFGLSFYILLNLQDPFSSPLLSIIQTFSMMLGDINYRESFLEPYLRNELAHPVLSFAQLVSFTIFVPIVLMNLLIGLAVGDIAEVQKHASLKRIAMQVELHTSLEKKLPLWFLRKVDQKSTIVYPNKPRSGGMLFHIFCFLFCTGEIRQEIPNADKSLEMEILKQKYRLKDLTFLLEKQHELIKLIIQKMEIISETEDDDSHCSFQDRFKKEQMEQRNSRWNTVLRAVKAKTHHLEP
# EXPERIMENTAL PROTOCOL: Agonist activity at TRPA1 expressed in CHO cells assessed as activation of channel current in presence of 330 - 380 nm UV irradiation by whole-cell patch clamp electrophysiology
Entries annotated with measured pEC50
By convention, pEC50 is the negative base-10 log of a molar concentration.

Form field: reported pEC50 of O=C(O)c1ccc(/N=N/c2ccccc2)cc1
4.61

Reported pEC50, molecule Clc1cc(/N=N/c2ccccc2)ccn1 : ____
5.26

Quick one: pEC50 of Oc1cccc(/N=N/c2ccccc2)c1 ?
3.98

Give its pEC50 value. Item: Cc1cnccc1/N=N/c1ccccc1
4.72

---

# EXPERIMENTAL PROTOCOL: Drug metabolism in cyclohexane assessed as thermal isomerization by measuring half life at 50 uM at 25 degC by UV-vis spectroscopy
# Format: physicochemical
Reported half-life at 50 µM values follow for various compounds

- O=C(O)c1ccc(/N=N/c2ccccc2)cc1: 1.35 min

Consider the compound shown here: Oc1cccc(/N=N/c2ccccc2)c1 What is its recorded half-life at 50 µM?
1.65 min

For the compound shown here, Cc1cnccc1/N=N/c1ccccc1 , give the reported half-life at 50 µM.
1.67 min

May I ask what half-life at 50 µM has been recorded for Clc1cc(/N=N/c2ccccc2)ccn1 ?
5.3 min

---

# EXPERIMENTAL PROTOCOL: Drug metabolism in bath solution assessed as photochemical switch by measuring cis-isoform at 50 uM measured after exposure to 365 nm UV irradiation by HPLC analysis
# Type: physicochemical
READOUT LABEL: Drug metabolism

The cases that follow already have their Drug metabolism on record.
* Nc1cccc(/N=N/c2ccccc2)c1 | Metabolite_Notdetected
* Oc1cccc(/N=N/c2ccccc2)c1 | Metabolite_Detected
* Cc1cnccc1/N=N/c1ccccc1 | Metabolite_Notdetected
* O=C(O)c1ccc(/N=N/c2ccccc2)cc1 | Metabolite_Detected

Need Drug metabolism, item Clc1cc(/N=N/c2ccccc2)ccn1
Metabolite_Detected

// data source = ChEMBL document CHEMBL5055659
